Origin of values: PubChem BioAssay AID1159580

Form field: normalized growth (one value per entry).
assay: chemical genetic growth profiling, strain panel (AID 1159580);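 further: tested at 20 µM; growth read once vehicle control cultures reached saturation at 30 °C; 1 = growth at the plate median or of vehicle wells; lower values mean less growth of the strain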; conditions: S. cerevisiae deletion strains, growth OD, locus YCL016C, strain dcc1, hits give low values
Screen size: about 5,500 compounds; about 2,000 (36%) were called active. Not shown: some 18% with an inconclusive outcome. Some of the results follow.
Just the number, please.

// worked examples, normalized growth included
>>> observed_result("CC[C@]12CCCN3CCc4c(n(c5ccccc45)[C@](O)(C(=O)OC)C1)[C@@H]32")
0.966
>>> observed_result("O=C1CN(/N=C\\c2ccc([N+](=O)[O-])o2)C(=O)N1")
0.99

Query `CCOC(=O)C1=C[C@]2(CC)CCCN3CCc4c(n1c1ccccc41)[C@@H]32` yields normalized growth of 1.02

Noted for `NC(=O)N/N=C\c1ccc([N+](=O)[O-])o1` : its normalized growth reads 0.992

For `CC[C@]12CCCN3CCc4c(n(c5ccccc45)C(=O)C1)[C@@H]32` the compound record lists normalized growth as 0.983

* * *

Below, each of the compounds is paired with its reported normalized growth value.
test: chemical genetic growth profiling, strain panel (AID 1159580);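 further: tested at 20 µM; growth read once vehicle control cultures reached saturation at 30 °C; 1 = growth at the plate median or of vehicle wells; lower values mean less growth of the strain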; settings: S. cerevisiae deletion strains, growth OD, locus YMR205C, strain PFK2, hits give low values
The whole screen tested about 5,500 compounds, of which about 2,000 (36%) were called active. Inconclusive results (about 18%) are left out. The list shows a part of the results.
Quick one: just the number, no unit, thanks!

Solved cases below.
>>> observed_result("NCCCCN=C(N)N")
1.02
>>> observed_result("NC(=O)c1cc[n+](CC2=C(C(=O)O)N3C(=O)C(NC(=O)C(c4ccccc4)S(=O)(=O)[O-])C3SC2)cc1 (stereo not drawn)")
1
>>> observed_result("O=C(O)c1ccc2c(c1)OCO2")
1.01
>>> observed_result("Oc1ccc(/C=C/c2cc(O)cc(O)c2)cc1")
0.976

Would you kindly look at the next entry?
// recorded normalized growth for `Cc1ccc(C(C)C)cc2c(C)ccc1-2` : 0.981

* * *

test: chemical genetic growth profiling, strain panel (AID 1159580);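 further: tested at 20 µM; growth read once vehicle control cultures reached saturation at 30 °C; 1 = growth at the plate median or of vehicle wells; lower values mean less growth of the strain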; settings: S. cerevisiae deletion strains, growth OD, locus YNL067W, strain RPL9B, hits give low values
The campaign covered roughly 5,500 compounds. About 2,000 (36%) were called active. About 18% were inconclusive and are not listed. This is one part of the list.
Measurement label: normalized growth
Give your answer as a number; write no unit.

Completed entries (count: 5):
>>> observed_result("CCOP(=S)(OCC)SCSP(=S)(OCC)OCC")
0.971
>>> observed_result("C#C[C@]1(O)CCC2C3CCc4cc(O)ccc4C3CC[C@@]21C (stereo partly specified)")
0.9
>>> observed_result("CC(=O)N[C@@H]1[C@@H](C(O)[C@H](O)CO)O[C@](O)(C(=O)O)C[C@@H]1O (stereo partly specified)")
1.05
>>> observed_result("CCOP(=S)(OCC)SCSCC")
0.988
>>> observed_result("Oc1ccc(/C=C/c2cc(O)cc(O)c2)cc1")
0.979

The compound `COP(=S)(OC)Oc1ccc(SC)c(C)c1` showed normalized growth equal to 1.01

normalized growth in this record for `NC(=O)c1cnccn1` : 1

Form field normalized growth, entry CC1CC2C(C(O)CC3(C)C2CCC3(O)C(=O)COC(=O)CCC(=O)O)C2(C)C=CC(=O)C=C12 (stereo unspecified) : 1.03

Consider CC(=O)C1=C(O)C2C3c4c[nH]c5cccc(c45)CC3C(C)(C)N2C1=O (stereo unspecified) . Its measured normalized growth is 1

normalized growth for CC(=O)OCC(=O)[C@@]12OC(C)(C)O[C@@H]1CC1C3C[C@H](F)C4=CC(=O)C=C[C@]4(C)[C@@]3(F)[C@@H](O)C[C@@]12C (stereo partly specified) is 0.995

For record OCC(S)CS (stereo unspecified) the listed normalized growth is 0.964
